ASSAY_EXPLANATION: refractive index (Na D-line) (dimensionless); xn = mol fraction of the nth substance listed
EXPERIMENTAL_CONDITIONS: 288.15 K; 100.5 kPa; Liquid; Standard Abbe refractometry; x1 = 0.7
ENDPOINT: refractive index
Lab note: record just the number, no unit beside it.

CC(=O)OCc1ccccc1 [benzyl ethanoate] + CCO :: 1.48418

Quick check: refractive index of CCOC(=O)CC(C)=O [ethyl 3-oxobutanoate] + CCO ?
1.4119

Same lookup for COC(=O)c1ccccc1 [methyl benzoate] + CCO , please.
1.49451

Same lookup for CCC(=O)OCc1ccccc1 [benzyl propanoate] + CCO , please.
1.48193

Same lookup for CCOC(=O)CC(C)C [ethyl 3-methylbutanoate] + CCO , please.
1.39369

Same lookup for CCOC(=O)c1ccccc1O [ethyl 2-hydroxybenzoate] + CCO , please.
1.50246
